# target-system: T1, Cynomolgus monkey NKp46 for immunization, screening, and testing (Kactus, NKP-CM146) (cynomolgus monkey, UniProt Q95JB9 22-254)
# T1 construct: Bought protein; also called monkey NKp46 antigen protein; cynomolgus monkey NKp46 antigen
# T1 sequence (Q95JB9 other isoform, or with tags, fused parts or gaps limits assumed): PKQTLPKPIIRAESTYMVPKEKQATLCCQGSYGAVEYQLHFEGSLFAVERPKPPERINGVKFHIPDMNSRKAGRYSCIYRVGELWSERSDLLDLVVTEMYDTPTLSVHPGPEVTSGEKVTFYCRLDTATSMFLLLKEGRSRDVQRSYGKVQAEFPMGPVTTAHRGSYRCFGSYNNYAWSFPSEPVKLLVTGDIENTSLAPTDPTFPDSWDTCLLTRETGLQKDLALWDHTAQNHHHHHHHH
# procedure-details: ELISA, coated antigen, VHH supernatant, anti-Myc HRP
measured-metric: OD450

NKp46-PC7 VHH (his and c-Myc labels) (VHH, IPTG-induced E. coli supernatant used in the screening ELISA; also called NKp46-PC7 clone supernatant; not shown: his and c-Myc labels) VHH: EVQLVESGGGSVQAGGSLRLSCAASGYTYRTDCMGWFRQAPGKEREGLATIYTSDGRTAYADSVKGRFTISQDNAKNTLYLDMNTLKPEDTAMYYCAADLQYGGSCPSGGWKYWGQGTLVTVSS :: > 1
NKp46-PA11 VHH (his and c-Myc labels) (VHH, IPTG-induced E. coli supernatant used in the screening ELISA; also called NKp46-PA11 clone supernatant; not shown: his and c-Myc labels) VHH: DVQLVESGGGLVQAGGSLRLSCAASGHTESWYRMGWFRQAPGKGREVVGRISGSPGILYYAGSVKGRFTISRDNAKNTLYLQMTNLKPEDTARYYCAADRTGATWDYWGQGTQVTVSS :: > 1

This collection of values is drawn from patent US20240141038A1.
